// data source = patent US5340565A

- EXPERIMENT: Cytotoxicity by trypan blue exclusion in HML
- Format: cell-based
- EXPERIMENTAL CONDITIONS: human, mononuclear leukocytes

{"COMPOUND": "CCN(CC)CCNC(=O)c1cc(Cl)c(N)cc1OC [Metoclopramide]", "cytotoxicity at 0.5 h, 10000 µM": "22%"}

====

- Tested on: ADPRT (adenosine diphosphate ribosyl transferase)
- EXPERIMENT: ADPRT activity in permeabilized HML after 30 min exposure
- Type: cell-based, human
- EXPERIMENTAL CONDITIONS: 500 μM agent, average of duplicates
MEASURED ATTRIBUTE: ADPRT Activity

{"MOLECULE": "CC(CN(C)C)CN1c2ccccc2Sc2ccccc21 (stereo not drawn)", "MEASURED ATTRIBUTE": "ADPRT Activity", "RESULT": "571 cpm TCA precipitable [3H]NAD p"}
{"MOLECULE": "Cc1ccc(C2(O)CCN(CCCC(=O)c3ccc(F)cc3)CC2)cc1", "MEASURED ATTRIBUTE": "ADPRT Activity", "RESULT": "712 cpm TCA precipitable [3H]NAD p"}
{"MOLECULE": "CC(CN1CCN(CCOCCO)CC1)CN1c2ccccc2Sc2ccccc21 (stereo not drawn)", "MEASURED ATTRIBUTE": "ADPRT Activity", "RESULT": "850 cpm TCA precipitable [3H]NAD p"}
{"MOLECULE": "CN(C)CCCN1c2ccccc2Sc2ccc(Cl)cc21", "MEASURED ATTRIBUTE": "ADPRT Activity", "RESULT": "890 cpm TCA precipitable [3H]NAD p"}
{"MOLECULE": "CCN(CC)CCNC(=O)c1cc(Cl)c(N)cc1OC [Metoclopramide]", "MEASURED ATTRIBUTE": "ADPRT Activity", "RESULT": "530 cpm TCA precipitable [3H]NAD p"}
{"MOLECULE": "OO", "MEASURED ATTRIBUTE": "ADPRT Activity", "RESULT": "2900 cpm TCA precipitable [3H]NAD p"}
